Consider the following molecules; for each one, report its inhibition.
assay: yeast transport mutant growth inhibition pilot in 384-well plates, post-Golgi transport modulator project (AID 636); settings: absorbance 615 nm, about 18 h, stronger effect = higher value
Give bare numbers, in %.

COc1ccccc1NC(=O)N(C1CCCC1)C1CCN(C(C)=O)CC1
0.77
COc1ccc(C2c3c(oc4ccccc4c3=O)C(=O)N2c2ccc(C)cn2)cc1OC (stereo not drawn)
-0.9
COc1cccc(NC(=O)CSc2nnc(Cc3cccn3C)n2-c2ccc(F)cc2)c1
-7.73

Please supply inhibition for each of the following items, keeping them in order.
1. CC1CCCN(S(=O)(=O)c2coc(C(N)=O)c2)C1 (stereo not drawn)
2. O=C(NCCCN1CCOCC1)c1ccc(CS(=O)(=O)c2c(Cl)cccc2Cl)o1
3. CCCCN(C(=O)c1ccc(Cl)cc1)C1CC2CCC(C1)N2C (stereo not drawn)
4. COc1ccc(NC(=O)CSc2nc3c(c(=O)n2-c2ccccc2OC)SCC3)cc1

Output line:
1. -0.51
2. -0.67
3. -5.6
4. -1.6

Input line: // lookup inhibition for CCC(C)NC(=O)CS(=O)(=O)Cc1nc(-c2cccc(OC)c2)oc1C (stereo not drawn)
Output line: -2

* * *

Consider the following molecules; for each one, report its viability.
assay: Her2 expression decrease, cell viability multiplex – SKBR3 breast tumor cells, AlphaScreen, ATP viability, primary screen (AID 461); settings: SKBR3 Her2 protein level, 18-24 h, measured here: SKBR3 viability, ATP luminescence, at 10 µM;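 further: percent of carrier control wells set as 100% viability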
Numbers only, in %.

Here's what some known entries look like.
CCOc1ccc(Cn2nnc(C(=O)Nc3cc(C)cc(C)c3)c2N)cc1
89.5
CCCCOC(=O)Cn1c(=O)oc2ccc(C)cc21
102
Cc1ccc(N(C(=O)c2ccncc2)C2C=CS(=O)(=O)C2)cc1 (centres undefined)
108
COc1nnc(-c2ccc(C)c(S(=O)(=O)NCCO)c2)c2ccccc12
93.5
COc1ccc(-c2cnc(SCC(=O)Nc3ccc4c(c3)OCO4)n2Cc2ccco2)cc1
102

Give viability for all molecules that follow.
1. CCOc1ccccc1NC(=O)CSc1nnc(Cc2cccn2C)n1-c1ccc(F)cc1
2. Cc1ccccc1-n1c(Cn2c(=O)sc3ccccc32)nnc1SCC(=O)N1CCCC1
3. Cc1cccc(-n2ncc3c(N(CCO)CCO)ncnc32)c1
4. CC1CCc2nn(CC(=O)NCc3ccc4c(c3)OCO4)cc2C1 (centres undefined)
5. COc1ccc(C)cc1S(=O)(=O)N1CCN(S(=O)(=O)c2cc(C)ccc2OC)CC1
6. O=C1c2ccccc2C(=O)N1C/C=C/CN1C(=O)c2ccccc2C1=O
7. CCCCN(C)C(=O)c1ccc(CS(=O)(=O)c2ccccc2C)o1

Output line:
92.5
109
97
86.5
110
85
93

Below are some molecules; for each one, tell me its viability.
1. COc1cccc(C2CC(c3ccc(C)cc3)n3nc(N)nc3N2)c1 (centres undefined)
2. O=C(c1ccco1)N1CCN(C2=NS(=O)(=O)c3ccccc32)CC1
3. CCOC(=O)N1CCC(c2cc(=O)n3[nH]c(C)c(-c4ccc(F)cc4)c3n2)CC1
4. COc1ccc(CN2C(=O)CN=C2Nc2ccc(C)cc2C)cc1
5. CCOc1ccccc1C(=O)Nc1nnc(CC)s1
6. CC1CC(C)CN(Cc2nc3c(c(=O)n(C)c(=O)n3C)n2Cc2ccccc2Cl)C1 (centres undefined)
7. COc1ccc2c(c1OC)C(=O)OC2CC(=O)c1ccc(O)cc1 (centres undefined)

Output line:
1. 104
2. 104
3. 67
4. 85
5. 94.5
6. 87.5
7. 100
